Assay: Water solubility of compound by HPLC analysis
Format: physicochemical
Reported Property: solubility (µg/mL)

[[record]]
structure_string = "CC1=C(C(C)(C)CC(=O)N(C)c2ccc(COC(=O)N3c4ccc(N(C)C)cc4Sc4cc(N(C)C)ccc43)cc2)C(=O)c2ccccc2C1=O"
data_value = 6.5


----------
Biological target: UniProt P15559
Sequence (P15559 whole entry): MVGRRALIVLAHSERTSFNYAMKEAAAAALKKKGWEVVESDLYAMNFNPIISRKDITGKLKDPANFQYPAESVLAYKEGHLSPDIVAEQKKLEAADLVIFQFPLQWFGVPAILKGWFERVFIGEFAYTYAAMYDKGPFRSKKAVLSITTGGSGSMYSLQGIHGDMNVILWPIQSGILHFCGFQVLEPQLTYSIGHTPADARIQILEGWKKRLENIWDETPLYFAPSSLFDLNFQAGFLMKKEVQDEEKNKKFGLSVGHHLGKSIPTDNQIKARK
Test: Substrate activity at recombinant human NQO1 assessed as enzyme activity by measuring oxidation of NADPH incubated for 5 mins measured per micromol of NADPH by NADPH recycling assay
Outcome label depends on Activity relative to 1000 µmol/min: at/above gives TRUE, below gives FALSE.

[[record]]
structure_string = "CC(C)(CC(=O)O)C1=CC(=O)c2ccccc2C1=O"
category = "TRUE"

[[record]]
structure_string = "CC1=C(CCC(=O)O)C(=O)c2ccccc2C1=O"
category = "TRUE"

[[record]]
structure_string = "CC1=C(C(C)(C)CC(=O)O)C(=O)c2ccccc2C1=O"
category = "TRUE"

[[record]]
structure_string = "CC1=C(C)C(=O)C(C(C)(C)CC(=O)O)=C(C)C1=O"
category = "TRUE"

[[record]]
structure_string = "O=C(O)CCC1=CC(=O)c2ccccc2C1=O"
category = "FALSE"

